# Tested on: MS2 coat protein
# ASSAY_COMMENT: apparent KD of MS2 coat protein; designed switch direction (-1 OFF switch, 1 ON switch): -1; higher = weaker reporter binding
# PARTICULARS: Eterna round: R95; input ligand: microRNA oligo, concentration not stated
Reported apparent KD of MS2 coat protein by item:

Consider the following illustrative entries.
AGAUCACAUGAGGAUCACCCAUGUGAGGAUAUGAUACUAUGUACUUCGGUACAUAGUAUCAGAAGGCAUGUGGA [Ex1-3: 75] (puzzle: Exclusion 1)    53.7 nM
CUUAUGUGAGGAUAUCAGUAGUAAUACAAUAGUAUUACUACUGAGAAGGCACAUGAGGAUCACCCAUGUUCUUC [Exclusion 4 - Mod Omei Ex4 344 mod v.2] (puzzle: Exclusion 4)    103 nM
AUAACAAGCUUUUUGCUCGUCGUAUAUGACGCUCGAGUCACAUGAGGAUCACCCAUGUCUUCCUGUUUGAUUGUUGA [JR_SV3TOV2_Sub056] (puzzle: Sensor v3, turn-off variant 2)    122 nM
GGAUCGUAUGUCAGGAUAUACCACUGGAUACAGUGGUAGAAGGGACAUGAGGAUCACCCAUGUGUUAUCGAUCC [Fiskers BMX 4 - 55] (puzzle: Brourd's mod of Exclusion 4)    41.5 nM
CGUGCGUAUGUGAGGAUAUGCUGGUCCUUGGAUCGGCAGAAGGUACAUGAGGAUCACCCAUGUGGUGUCGUUCU [salish99_Bmod_ex4_106] (puzzle: Brourd's mod of Exclusion 4)    171 nM

**Query** What value of apparent KD of MS2 coat protein has been recorded for this entry: AAUCCACAUGAGGAUCACCCAUGUGAGGAUAUGAUACUAUGUACUUCGGUACAUAGUAUCAGAAGGCACAUAAA [Ex1-3: 51] (puzzle: Exclusion 1)
**Result** 28.4 nM

**Query** What value of apparent KD of MS2 coat protein has been recorded for this entry: UCCAACCCUGUGAGGAUAUCGUCCAUUUUUUGUUACGAGAAGGCACAUGAGGAUCACCCAUGUUUUUUAUUUUU [JR_BMOE4_Sub079] (puzzle: Brourd's mod of Exclusion 4)
**Result** 23.8 nM

**Query** What value of apparent KD of MS2 coat protein has been recorded for this entry: AGAGAGUCAGGAUAUCGGAGGGAGAGGAGAGGAGAGAGGGACGAGAAGGGACAUGAGGAUCACCCAUGUAGGUG [JR_Exclusion4)Sub017] (puzzle: Exclusion 4)
**Result** 437 nM

**Query** What value of apparent KD of MS2 coat protein has been recorded for this entry: GGUUGUUGUUUCCGUUCUUACAUGAGGAUCACCCAUGUUUCUUGUCGUGCUCGCGUUGCUCGUCUGUCUGUCUGUUG [salish99_TOv1_r3_072] (puzzle: Sensor v3, turn-off variant 1)
**Result** 36.2 nM

**Query** What value of apparent KD of MS2 coat protein has been recorded for this entry: CGUAGUCUUCGGACUACGAACAUGAGGAUCACCCAUGUAAUGAGCAGAUCCUCAUGCAAGCUUUUUGCUCGUCUUAU [Sensor v3 - turn-off variant 1 - 46] (puzzle: Sensor v3, turn-off variant 1)
**Result** 11.5 nM

**Query** What value of apparent KD of MS2 coat protein has been recorded for this entry: CGUGGCUUUUACGUGAGUGGUGGGUGCAACAGGUGGGUUACAUGAGGAUCACCCAUGUGCUCACUUGCUCGUCUUUU [Grok-var2-10] (puzzle: Sensor v3, turn-off variant 2)
**Result** 17.5 nM
